- target entity: E. coli β-glucuronidase (Escherichia coli)
- Sequence (P05804 whole entry): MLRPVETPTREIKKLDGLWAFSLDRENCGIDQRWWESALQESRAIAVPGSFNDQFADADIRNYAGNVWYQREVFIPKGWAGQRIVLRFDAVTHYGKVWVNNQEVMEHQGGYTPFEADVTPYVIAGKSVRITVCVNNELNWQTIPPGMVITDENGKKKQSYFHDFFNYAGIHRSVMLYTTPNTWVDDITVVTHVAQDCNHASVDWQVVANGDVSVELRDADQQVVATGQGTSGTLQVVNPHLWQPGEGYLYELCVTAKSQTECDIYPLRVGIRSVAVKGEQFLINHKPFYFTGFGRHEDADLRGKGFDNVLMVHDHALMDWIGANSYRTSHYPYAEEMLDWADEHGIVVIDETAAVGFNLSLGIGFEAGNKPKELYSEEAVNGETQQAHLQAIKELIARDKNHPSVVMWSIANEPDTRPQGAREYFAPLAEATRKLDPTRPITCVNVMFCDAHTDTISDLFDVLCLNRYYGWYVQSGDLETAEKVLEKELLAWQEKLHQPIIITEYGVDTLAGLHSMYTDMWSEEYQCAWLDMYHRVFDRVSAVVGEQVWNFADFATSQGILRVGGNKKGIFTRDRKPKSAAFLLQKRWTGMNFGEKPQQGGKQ
- assay setup: enzymatic hydrolysis by E. coli β-glucuronidase

# compound, Kcat
rows = [
    ("CC[C@@]1(O)C(=O)OCc2c1cc1n(c2=O)Cc2c-1nc1ccc(OCc3ccc(O[C@@H]4O[C@H](C(=O)O)[C@@H](O)[C@H](O)[C@H]4O)c([N+](=O)[O-])c3)c3c1c2CCC3 [BQC-G]", "45.1 s⁻¹"),
    ("O=C(O)[C@H]1O[C@@H](Oc2ccc([N+](=O)[O-])cc2)[C@H](O)[C@@H](O)[C@@H]1O [PNPG, p-nitrophenol β-D-glucuronide]", "173 s⁻¹"),
    ("Cc1cc(=O)oc2cc(O[C@@H]3O[C@H](C(=O)O)[C@@H](O)[C@H](O)[C@H]3O)ccc12 [4-MUG, 4-methylumbelliferyl-β-D-glucuronide]", "22.2 s⁻¹"),
    ("CC[C@@]1(O)C(=O)OCc2c1cc1n(c2=O)Cc2cc3c(NC(=O)OCc4ccc(O[C@@H]5O[C@H](C(=O)O)[C@@H](O)[C@H](O)[C@H]5O)cc4)cccc3nc2-1 [9ACG, 9-amino-camptothecin-glucuronide]", "8.6 s⁻¹"),
]

---

- Tested on: CL1-5 human lung adenocarcinoma cells
- run description: In vitro cytotoxicity (3H-thymidine incorporation), CL1-5
- Format: cell-based
- assay setup: Homo sapiens, CL1-5, CL1-5, +HSA (40 mg/ml)
The following compounds are listed with their measured IC50 values.

# smiles, unit, value qualifier, IC50
data = [
    ("CC[C@@]1(O)C(=O)OCc2c1cc1n(c2=O)Cc2cc3c(CN(C)C)c(O)ccc3nc2-1", "nM", "=", 28.4),
    ("CC[C@@]1(O)C(=O)OCc2c1cc1n(c2=O)Cc2cc3ccccc3nc2-1", "nM", ">", 3000),
]

---

- target entity: E. coli β-glucuronidase (Escherichia coli)
- assay setup: enzymatic hydrolysis by E. coli β-glucuronidase

# compound, unit, Km
rows = [
    ("O=C(O)[C@H]1O[C@@H](Oc2ccc([N+](=O)[O-])cc2)[C@H](O)[C@@H](O)[C@@H]1O [PNPG, p-nitrophenol β-D-glucuronide]", "µM", 490),
    ("CC[C@@]1(O)C(=O)OCc2c1cc1n(c2=O)Cc2c-1nc1ccc(OCc3ccc(O[C@@H]4O[C@H](C(=O)O)[C@@H](O)[C@H](O)[C@H]4O)c([N+](=O)[O-])c3)c3c1c2CCC3 [BQC-G]", "µM", 4.6),
    ("CC[C@@]1(O)C(=O)OCc2c1cc1n(c2=O)Cc2cc3c(NC(=O)OCc4ccc(O[C@@H]5O[C@H](C(=O)O)[C@@H](O)[C@H](O)[C@H]5O)cc4)cccc3nc2-1 [9ACG, 9-amino-camptothecin-glucuronide]", "µM", 30),
    ("Cc1cc(=O)oc2cc(O[C@@H]3O[C@H](C(=O)O)[C@@H](O)[C@H](O)[C@H]3O)ccc12 [4-MUG, 4-methylumbelliferyl-β-D-glucuronide]", "µM", 80.2),
]

---

- Test system: CL1-5 human lung adenocarcinoma cells
- run description: In vitro cytotoxicity (3H-thymidine incorporation), CL1-5
- Assay type: cell-based
- assay setup: CL1-5, without HSA, β-glucuronidase added
pIC50: −log10 of the molar value.

# smiles, pIC50
data = [
    ("CC[C@@]1(O)C(=O)OCc2c1cc1n(c2=O)Cc2c-1nc1ccc(OCc3ccc(O[C@@H]4O[C@H](C(=O)O)[C@@H](O)[C@H](O)[C@H]4O)c([N+](=O)[O-])c3)c3c1c2CCC3", 8.89),
]
